Where these numbers come from: patent US20150259331A1

Test system: T. brucei brucei Lister 427
PROTOCOL DESCRIPTION: Trypanosome replication assay
Format: cell-based, Trypanosoma brucei brucei
MEASUREMENT CONTEXT: concentration giving 50% inhibition of growth of T brucei brucei Lister 427 cells; 48 h; values ±7%; listed as NEU-567, Hydrochloride; read-out: Tbb EC50
Where a name gives a salt, the structure may show the parent alone.
VALUE KIND: EC50 (nM)
A number alone suffices; assume nM.

Please report the recorded EC50 for COc1cccc(COc2ccc(Nc3ncnc4ccc(-c5ccc(S(=O)(=O)N6CCOCC6)cc5)cc34)cc2Cl)c1 [Compound 20k, Hydrochloride] .
1400

* * *

Test system: L. major amastigote
PROTOCOL DESCRIPTION: L. major amastigote assay
Format: cell-based
MEASUREMENT CONTEXT: Leishmania major
pEC50: −log10 of the molar value. Structures can show the parent of a compound that is named as a salt.
VALUE KIND: pEC50

In the examples that follow, each entry is paired with its recorded pEC50.
[
  {
    "COMPOUND": "Fc1cccc(COc2ccc(Nc3ncnc4ccc(-c5cccc(N6CCCCC6)c5)cc34)cc2Cl)c1 [Compound 23g]",
    "pEC50": "< 4.82"
  },
  {
    "COMPOUND": "CN1CCN(S(=O)(=O)c2ccc(-c3ccc4c(Nc5ccc(OCc6cccc(F)c6)c(Cl)c5)nccc4c3)cc2)CC1",
    "pEC50": "< 4.82"
  },
  {
    "COMPOUND": "CN(C)S(=O)(=O)c1ccccc1-c1ccc2ncnc(Nc3ccc(OCc4cccc(F)c4)c(Cl)c3)c2c1 [Compound 10v]",
    "pEC50": "< 4.82"
  },
  {
    "COMPOUND": "CN1CCN(S(=O)(=O)c2ccc(-c3ccc4cnnc(Nc5ccc(OCc6cccc(F)c6)c(Cl)c5)c4c3)cc2)CC1",
    "pEC50": "< 5.40"
  }
]

Please look at the following compound next.
Please report the recorded pEC50 for O=S(=O)(c1ccc(-c2ccc3ncnc(Nc4ccc(OCc5ccc(C(F)(F)F)c(F)c5)c(Cl)c4)c3c2)cc1)N1CCOCC1 [Compound 20l, Hydrochloride] .
5.60

* * *

PROTOCOL DESCRIPTION: in vitro
MEASUREMENT CONTEXT: male, BALB/c, mouse, pH 7.4
VALUE KIND: recovery at 4 h, 5 μM
Answer format reminder: number followed by unit.

[
  {
    "COMPOUND": "CC(=O)CC(c1ccccc1)c1c(O)c2ccccc2oc1=O (centres unmarked)",
    "recovery at 4 h, 5 μM": "95%"
  }
]

Please look at the following compound next.
Please report the recorded recovery at 4 h, 5 μM for Fc1cccc(COc2ccc(Nc3ncnc4ccc(-c5cccc(N6CCOCC6)c5)cc34)cc2Cl)c1 [Compound 23a] .
100%

* * *

PROTOCOL DESCRIPTION: Mouse oral pharmacokinetic study
Type: in vivo, male BALB/c mice
MEASUREMENT CONTEXT: male, BALB/c, mouse; brain; 40 mg/kg PO single dose
VALUE KIND: AUC(0-t) (ng·h/mL)
A number alone suffices; assume ng·h/mL.

Please report the recorded AUC(0-t) for Fc1cccc(COc2ccc(Nc3ncnc4ccc(-c5cccc(N6CCOCC6)c5)cc34)cc2Cl)c1 [Compound 23a] .
92.5

* * *

PROTOCOL DESCRIPTION: in vitro
MEASUREMENT CONTEXT: male, BALB/c, mouse, plasma, pH 7.4, % Bound R2
VALUE KIND: fraction unbound at 4 h, 5 μM
Write no unit; give the number alone.

Please report the recorded fraction unbound at 4 h, 5 μM for CC(=O)CC(c1ccccc1)c1c(O)c2ccccc2oc1=O (stereo not shown) .
0.058

* * *

Tested on: L. major promastigote
PROTOCOL DESCRIPTION: L. major promastigote assay
Format: cell-based
Listed below: pEC50 values for each entry.
When answering, recall that pEC50 equals minus log10 of the concentration in mol/L, and write that number alone.

[
  {
    "COMPOUND": "Fc1cccc(COc2ccc(Nc3ncnc4ccc(-c5ccc(CN6CCOCC6)cc5)cc34)cc2Cl)c1 [Compound 23d]",
    "VAL": 5.57
  },
  {
    "COMPOUND": "Fc1cccc(COc2ccc(Nc3ncnc4ccc(-c5ccccc5)cc34)cc2Cl)c1 [NEU-706]",
    "VAL": 5.40
  }
]

Please look at the following compound next.
Give recorded pEC50 with L. major promastigote for the following compound: CN1CCN(S(=O)(=O)c2ccc(-c3ccc4ncnc(Nc5ccc(OCc6ccccc6)cc5)c4c3)cc2)CC1 [NEU-765]
5.82

* * *

PROTOCOL DESCRIPTION: Mouse oral pharmacokinetic study
Format: in vivo, male BALB/c mice
MEASUREMENT CONTEXT: male, BALB/c, mouse; brain; 40 mg/kg PO single dose
Procedure: Test system. Healthy male BALB/c mice (8-12 weeks old) weighing between 20 to 35 g were procured from In vivo biosciences, Bengaluru, India. Maximum three mice were housed in each polycarbonate cage. […] The temperature and humidity were recorded by auto-controlled data logger system. […] The weighed quantity (39.22 mg) of compound NEU-617 for p.o. dosing was added in a mortar. […] The areas under the concentration time curve (AUClast and AUCinf) were calculated by linear trapezoidal rule.
VALUE KIND: Cmax (ng/mL)
A number alone suffices; assume ng/mL.

Please report the recorded Cmax for Fc1cccc(COc2ccc(Nc3ncnc4ccc(-c5cccc(N6CCOCC6)c5)cc34)cc2Cl)c1 [Compound 23a] .
26

* * *

Listed below: pEC50 values for each entry.
System: T. cruzi
PROTOCOL DESCRIPTION: T. cruzi growth inhibition
Assay type: cell-based, Trypanosoma cruzi
When answering, recall that pEC50 equals minus log10 of the concentration in mol/L, and write that number alone.

Please report the recorded pEC50 for Fc1cccc(COc2ccc(Nc3ncnc4ccc(-c5ccc(CN6CCCCC6)cc5)cc34)cc2Cl)c1 [Compound 23j] .
5.47

Please report the recorded pEC50 for Fc1cccc(COc2ccc(Nc3ncnc4ccc(-c5ccccc5)cc34)cc2Cl)c1 [NEU-706] .
5.74

Please report the recorded pEC50 for CN1CCN(S(=O)(=O)c2ccc(-c3ccc4ncnc(Nc5ccc(OCc6ccccc6)c(Cl)c5)c4c3)cc2)CC1 [NEU-764] .
5.41

Please report the recorded pEC50 for Fc1cccc(COc2ccc(Nc3ncnc4ccc(-c5ccc(CN6CCOCC6)cc5)cc34)cc2Cl)c1 [Compound 23d] .
6.22

* * *

Tested on: HepG2 cells
PROTOCOL DESCRIPTION: HepG2 cell toxicity (MTT) assay
Format: cell-based
MEASUREMENT CONTEXT: Table 13; read-out: HepG2 TC50
Listed below: CC50 values for each entry.

[
  {
    "MOLECULE": "CN1CCCN(S(=O)(=O)c2ccc(-c3ccc4c(Nc5ccc(OCc6cccc(F)c6)c(Cl)c5)cnnc4c3)cc2)CC1 [NEU-1017]",
    "VAL": "15 µM"
  },
  {
    "MOLECULE": "CN1CCN(S(=O)(=O)c2ccc(-c3ccc4c(Nc5ccc(OCc6cccc(F)c6)c(Cl)c5)ccnc4c3)cc2)CC1 [NEU-961]",
    "VAL": "> 4 µM"
  },
  {
    "MOLECULE": "O=S(=O)(c1ccc(-c2ccc3c(Nc4ccc(OCc5ccccc5)c(Cl)c4)nncc3c2)cc1)N1CCOCC1 [NEU-1039]",
    "VAL": "> 15 µM"
  }
]

Please look at the following molecule next.
Please report the recorded CC50 for O=S(=O)(c1ccc(-c2ccc3nccc(Nc4ccc(OCc5ccccc5)c(Cl)c4)c3c2)cc1)N1CCOCC1 [NEU-945] .
> 5 µM

* * *

PROTOCOL DESCRIPTION: Plasma protein binding, rapid equilibrium dialysis
MEASUREMENT CONTEXT: male, BALB/c, mouse, plasma, pH 7.4, % Bound R2, replicate 2; 5 μM, mice plasma, 37° C., 4 hours
VALUE KIND: fraction unbound at 4 h, 5 μM
Write no unit; give the number alone.

Please report the recorded fraction unbound at 4 h, 5 μM for Fc1cccc(COc2ccc(Nc3ncnc4ccc(-c5cccc(N6CCOCC6)c5)cc34)cc2Cl)c1 [Compound 23a] .
0.003

* * *

Listed below: pEC50 values for each entry.
Tested on: L. major promastigote
PROTOCOL DESCRIPTION: L. major promastigote assay
Type: cell-based
MEASUREMENT CONTEXT: Leishmania major
Structures can show the parent of a compound that is named as a salt.
When answering, recall that pEC50 equals minus log10 of the concentration in mol/L, and write that number alone.

In the examples that follow, each entry is paired with its recorded pEC50.
[
  {
    "COMPOUND": "CN1CCCN(S(=O)(=O)c2ccc(-c3ccc4c(Nc5ccc(OCc6cccc(F)c6)c(Cl)c5)nccc4c3)cc2)CC1",
    "TESTED SYSTEM": "L. major promastigote",
    "VAL": 6.36
  },
  {
    "COMPOUND": "O=S(=O)(c1ccc(-c2ccc3ncnc(Nc4ccc(OCc5ccc(F)cc5)c(Cl)c4)c3c2)cc1)N1CCOCC1 [Compound 20j, Hydrochloride]",
    "TESTED SYSTEM": "L. major promastigote",
    "VAL": 5.77
  },
  {
    "COMPOUND": "O=S(=O)(c1ccc(-c2ccc3ncnc(Nc4ccc(OCc5ccccc5)c(Cl)c4)c3c2)cc1)N1CCOCC1 [Compound 20e, Hydrochloride]",
    "TESTED SYSTEM": "L. major promastigote",
    "VAL": 6.33
  },
  {
    "COMPOUND": "Fc1cccc(COc2ccc(Nc3cnnc4cc(-c5cccc(N6CCOCC6)c5)ccc34)cc2Cl)c1",
    "TESTED SYSTEM": "L. major promastigote",
    "VAL": 5.01
  },
  {
    "COMPOUND": "O=S(=O)(c1ccc(-c2ccc3ncnc(Nc4ccc(OCc5cccc(Br)c5)c(Cl)c4)c3c2)cc1)N1CCOCC1 [Compound 20f, Hydrochloride]",
    "TESTED SYSTEM": "L. major promastigote",
    "VAL": 4.85
  },
  {
    "COMPOUND": "O=C(c1cccc(-c2ccc3ncnc(Nc4ccc(OCc5cccc(F)c5)c(Cl)c4)c3c2)c1)N1CCOCC1 [Compound 23e]",
    "TESTED SYSTEM": "L. major promastigote",
    "VAL": 5.52
  },
  {
    "COMPOUND": "O=S(=O)(c1ccc(-c2ccc3ncnc(Nc4ccc(OCc5cccc(F)c5)cc4)c3c2)cc1)N1CCOCC1 [Compound 20n]",
    "TESTED SYSTEM": "L. major promastigote",
    "VAL": 6.32
  },
  {
    "COMPOUND": "CN(C)S(=O)(=O)c1ccccc1-c1ccc2ncnc(Nc3ccc(OCc4cccc(F)c4)c(Cl)c3)c2c1 [Compound 10v]",
    "TESTED SYSTEM": "L. major promastigote",
    "VAL": 5.55
  }
]

Please report the recorded pEC50 for `CN1CCCN(S(=O)(=O)c2ccc(-c3ccc4c(Nc5ccc(OCc6cccc(F)c6)c(Cl)c5)ccnc4c3)cc2)CC1` .
6.40

Please report the recorded pEC50 for O=S(=O)(c1ccc(-c2ccc3ncnc(Nc4ccc(OCc5cccc(Cl)c5)c(Cl)c4)c3c2)cc1)N1CCOCC1 [Compound 20g, Hydrochloride] .
4.82

Please report the recorded pEC50 for `CN1CCCN(S(=O)(=O)c2ccc(-c3ccc4ccnc(Nc5ccc(OCc6cccc(F)c6)c(Cl)c5)c4c3)cc2)CC1` .
5.89

Please report the recorded pEC50 for `CN1CCN(S(=O)(=O)c2ccc(-c3ccc4c(Nc5ccc(OCc6cccc(F)c6)c(Cl)c5)cnnc4c3)cc2)CC1` .
5.24
